Every entry's value here was drawn from patent US7632666B2.

Kindly state Relative activities (% of wt) L177D for each of the entries shown.
Tested on: haloalkane dehalogenase LinB L177D (Sphingobium indicum, UniProt D4Z2G1, L177D)
Sequence (D4Z2G1 whole entry L177D, looked up): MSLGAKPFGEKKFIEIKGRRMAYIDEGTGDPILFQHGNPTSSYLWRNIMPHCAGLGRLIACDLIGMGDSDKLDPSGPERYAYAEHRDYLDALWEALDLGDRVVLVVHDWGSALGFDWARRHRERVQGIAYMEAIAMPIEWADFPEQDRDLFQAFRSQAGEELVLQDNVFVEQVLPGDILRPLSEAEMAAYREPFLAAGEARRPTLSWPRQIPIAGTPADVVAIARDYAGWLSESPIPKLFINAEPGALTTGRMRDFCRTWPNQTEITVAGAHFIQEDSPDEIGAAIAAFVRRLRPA
Assay type: biochemical

Record excerpt, results attached:
{"Entry smiles": "C=C(C)CCl", "Relative activities (% of wt) L177D": "25 % of wt"}
{"Entry smiles": "BrCCBr", "Relative activities (% of wt) L177D": "77 % of wt"}

Would you be so kind as to report Relative activities (% of wt) L177D for each listed record?
1. CCCCI
2. CCCCBr
3. ICCCI

// result
1. 259 % of wt
2. 347 % of wt
3. 209 % of wt
